Source: patent US20090118274A1

# pIC50 annotations
- target_under_test: Recombinant human cathepsin S (CatS) (Homo sapiens, UniProt P25774)
- Construct: made in house
- Sequence (P25774 115-331): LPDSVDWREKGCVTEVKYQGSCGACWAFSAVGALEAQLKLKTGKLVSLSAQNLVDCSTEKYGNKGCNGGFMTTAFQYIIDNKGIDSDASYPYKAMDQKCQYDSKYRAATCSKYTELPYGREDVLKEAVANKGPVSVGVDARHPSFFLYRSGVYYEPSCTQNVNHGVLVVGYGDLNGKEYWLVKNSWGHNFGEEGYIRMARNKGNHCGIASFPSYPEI
- method_notes: Recombinant human cathepsin S (CatS) fluorogenic substrate inhibition assay
- Format: biochemical
- condition_parameters: average of results obtained; substrate Z-Valine-Valine-Arginine-AMC 10 μM, pH 5.0; read-out: CatS IC50
- Experimental: Recombinant human cathepsin S (CatS) was expressed in the baculovirus system and purified in one step with a thiopropyl-sepharose column. […] The assay is run in 150 mM sodium acetate pH 5.0 containing 1.5 mM DTT and 150 mM NaCl. […] Measurements are taken every min for 20 min. The rate is calculated from the slope of the increase in fluorescence and the percent inhibition is calculated from this.
pIC50: −log10 of the molar value.
test_readout: pIC50

compound: CS(=O)(=O)N1CCc2c(c(-c3ccc(C(F)(F)F)c(CNC(=O)c4ccc(F)cc4)c3)nn2CC(O)CN2CCC(O)CC2)C1 (stereo not drawn) [Example 25]
test_readout: pIC50
numeric_readout: 6.77
//
compound: CS(=O)(=O)N1CCc2c(c(-c3ccc(C(F)(F)F)c(CNC(=O)c4ccc(F)c(Cl)c4)c3)nn2CC(O)CN2CCCC2)C1 (stereo not drawn) [Example 61]
test_readout: pIC50
numeric_readout: 6.72
//
compound: CS(=O)(=O)N1CCc2c(c(-c3ccc(C(F)(F)F)c(CNC(=O)c4cccc(O)c4)c3)nn2CC(O)CN2CCCC2)C1 (stereo not drawn) [Example 58]
test_readout: pIC50
numeric_readout: 6.38

###

- target_under_test: Recombinant human cathepsin S (CatS) (Homo sapiens)
- Construct: made in house
- method_notes: Recombinant human cathepsin S (CatS) fluorogenic substrate inhibition assay
- Type: biochemical
- condition_parameters: average of results obtained; substrate Z-Valine-Valine-Arginine-AMC 10 μM, pH 5.0; read-out: CatS IC50
The label condition met is reserved for IC50 strictly under 1000 nM; condition not met covers values equal to or above it.

compound: CS(=O)(=O)N1CCc2c(c(-c3ccc(C(F)(F)F)c(CNCc4ccccc4)c3)nn2CC(O)CN2CCCC2)C1 (stereo not drawn) [Example 205]
label_class: condition not met

compound: CS(=O)(=O)N1CCc2c(c(-c3ccc(C(F)(F)F)c(CNC(=O)c4cc(Cl)cc(Cl)c4)c3)nn2CC(O)CN2CCCC2)C1 (stereo not drawn) [Example 218]
label_class: condition met

compound: CS(=O)(=O)N1CCc2c(c(-c3ccc(Cl)c(CNC(=O)c4ccc(Cl)cc4)c3)nn2CCCN2CCCC2)C1 [Example 86]
label_class: condition met

compound: CS(=O)(=O)N1CCc2c(c(-c3ccc(C(F)(F)F)c(CNC(=O)c4ccc(C(F)(F)F)cc4)c3)nn2CC(O)CN2CCCC2)C1 (stereo not drawn) [Example 225]
label_class: condition met

compound: CC(=O)NC1CCN(CC(O)Cn2nc(-c3ccc(C(F)(F)F)c(CNC(=O)c4ccc(F)cc4)c3)c3c2CCN(S(C)(=O)=O)C3)CC1 (stereo not drawn) [Example 140]
label_class: condition met

compound: CS(=O)(=O)N1CCc2c(c(-c3ccc(C(F)(F)F)c(CNC(=O)c4cccc(Cl)c4)c3)nn2CC(O)CN2CCCC2)C1 (stereo not drawn) [Example 166]
label_class: condition met

###

# pIC50 annotations
- target_under_test: Recombinant human cathepsin S (CatS) (Homo sapiens, UniProt P25774)
- Construct: made in house
- method_notes: Recombinant human cathepsin S (CatS) fluorogenic substrate inhibition assay
- Assay type: biochemical
- condition_parameters: average of results obtained; substrate Z-Valine-Valine-Arginine-AMC 10 μM, pH 5.0; read-out: CatS IC50
pIC50: −log10 of the molar value.
test_readout: pIC50

molecule: CS(=O)(=O)N1CCc2c(c(-c3ccc(C(F)(F)F)c(CNC(=O)c4ccc(F)cc4Cl)c3)nn2CC(O)CN2CCCC2)C1 (stereo not shown) [Example 63]
numeric_readout: 6.60

molecule: CN(C)C1CCN(CC(O)Cn2nc(-c3ccc(Cl)c(CNC(=O)c4ccc(F)cc4)c3)c3c2CCN(S(C)(=O)=O)C3)CC1 (stereo not shown) [Example 85]
numeric_readout: 6.35

molecule: CS(=O)(=O)N1CCc2c(c(-c3ccc(C(F)(F)F)c(CNC(=O)C4CCCCCC4)c3)nn2CCCN2CCC3(CCNC3=O)CC2)C1 [Example 158]
numeric_readout: 6.55

molecule: Cc1ccc(C(=O)NCc2cc(-c3nn(CCCN4CCCC4)c4c3CN(S(C)(=O)=O)CC4)ccc2Cl)cc1 [Example 88]
numeric_readout: 6.13

molecule: CS(=O)(=O)N1CCc2c(c(-c3ccc(C(F)(F)F)c(CNC(=O)c4ccccc4)c3)nn2CC(O)CN2CCCC2)C1 (stereo not shown) [Example 56]
numeric_readout: 6.60

molecule: CS(=O)(=O)N1CCc2c(c(-c3ccc(Cl)c(CNC(=O)c4cccnc4)c3)nn2CCCN2CCCC2)C1 [Example 232]
numeric_readout: 6.09

molecule: O=C(NCc1cc(-c2nn(CC(O)CN3CCC4(CCNC4=O)CC3)c3c2CN(C(=O)CO)CC3)ccc1C(F)(F)F)c1ccc(F)cc1 (stereo not shown) [Example 8]
numeric_readout: 7.70

###

# pIC50 annotations
- target_under_test: Recombinant human cathepsin S (CatS) (Homo sapiens, UniProt P25774)
- Construct: made in house
- method_notes: Recombinant human cathepsin S (CatS) fluorogenic substrate inhibition assay
- Type: biochemical
- condition_parameters: average of results obtained; substrate Z-Valine-Valine-Arginine-AMC 10 μM, pH 5.0; read-out: CatS IC50
pIC50: −log10 of the molar value.
test_readout: pIC50

compound: CS(=O)(=O)N1CCc2c(c(-c3ccc(Cl)c(CNC(=O)c4ccccc4)c3)nn2CC(O)CN2CCCC2)C1 (stereo not drawn)
numeric_readout: 6.30

compound: C/N=c1/ccccn1CC(O)Cn1nc(-c2ccc(Cl)c(CNC(=O)c3ccc(F)cc3)c2)c2c1CCN(S(C)(=O)=O)C2 (stereo not drawn)
numeric_readout: 6.17

compound: Cc1ccc(C(=O)NCc2cc(-c3nn(CC(O)CN4CCCC4)c4c3CN(S(C)(=O)=O)CC4)ccc2C(F)(F)F)cc1 (stereo not drawn)
numeric_readout: 6.24

###

- target_under_test: Recombinant human cathepsin S (CatS) (Homo sapiens)
- Construct: made in house
- method_notes: Recombinant human cathepsin S (CatS) fluorogenic substrate inhibition assay
- Format: biochemical
- condition_parameters: average of results obtained; substrate Z-Valine-Valine-Arginine-AMC 10 μM, pH 5.0; read-out: CatS IC50
# IC50 annotations

compound: CN(C)C(=O)CCc1cc(-c2nn(CCCN3CCOCC3)c3c2CN(S(C)(=O)=O)CC3)ccc1Cl
target_under_test: Recombinant human cathepsin S (CatS) (Homo sapiens)
IC50 [nM]: 4850

compound: CC(=O)NC1CCN(CC(O)Cn2nc(-c3ccc(C(F)(F)F)c(CNC(=O)C=C(C)C)c3)c3c2CCN(S(C)(=O)=O)C3)CC1 (centres unmarked)
target_under_test: Recombinant human cathepsin S (CatS) (Homo sapiens)
IC50 [nM]: 10

compound: CS(=O)(=O)N1CCc2c(c(-c3ccc(C(F)(F)F)c(CNC(=O)c4ccc(F)cc4)c3)nn2CC(O)CN2CCC3(CCNC3=O)CC2)C1 (centres unmarked)
target_under_test: Recombinant human cathepsin S (CatS) (Homo sapiens)
IC50 [nM]: 60

compound: CC(C)=CC(=O)NCc1cc(-c2nn(CC(O)CN3CCC(O)C3)c3c2CN(S(C)(=O)=O)CC3)ccc1C(F)(F)F (centres unmarked)
target_under_test: Recombinant human cathepsin S (CatS) (Homo sapiens)
IC50 [nM]: 270

compound: CS(=O)(=O)N1CCc2c(c(-c3ccc(Cl)c(CNC(=O)c4cc5ccccc5s4)c3)nn2CCCN2CCCC2)C1
target_under_test: Recombinant human cathepsin S (CatS) (Homo sapiens)
IC50 [nM]: 410

compound: CNC(=O)NC1CCN(CC(O)Cn2nc(-c3ccc(Cl)c(CNC(=O)c4ccc(F)cc4)c3)c3c2CCN(S(C)(=O)=O)C3)CC1 (centres unmarked)
target_under_test: Recombinant human cathepsin S (CatS) (Homo sapiens)
IC50 [nM]: 30

compound: CS(=O)(=O)N1CCc2c(c(-c3ccc(Cl)c(CNC(=O)c4ccc(F)cc4)c3)nn2CC(O)CN2CCC3(CCNC3=O)CC2)C1 (centres unmarked)
target_under_test: Recombinant human cathepsin S (CatS) (Homo sapiens)
IC50 [nM]: 90

compound: CC(C)=CC(=O)NCc1cc(-c2nn(CC(O)CN3CCC(O)CC3)c3c2CN(S(C)(=O)=O)CC3)ccc1C(F)(F)F (centres unmarked)
target_under_test: Recombinant human cathepsin S (CatS) (Homo sapiens)
IC50 [nM]: 90

compound: CS(=O)(=O)N1CCc2c(c(-c3ccc(Cl)c(COC(=O)c4ccccc4)c3)nn2CCCN2CCCC2)C1
target_under_test: Recombinant human cathepsin S (CatS) (Homo sapiens)
IC50 [nM]: 1850

compound: CS(=O)(=O)N1CCc2c(c(-c3ccc(C(F)(F)F)c(CNC(=O)CN4CCOCC4)c3)nn2CCCN2CCC(N3CCCC3=O)CC2)C1
target_under_test: Recombinant human cathepsin S (CatS) (Homo sapiens)
IC50 [nM]: 440

compound: CS(=O)(=O)N1CCc2c(c(-c3ccc(C(F)(F)F)c(CNC(=O)c4ccc(Cl)c(Cl)c4)c3)nn2CC(O)CN2CCCC2)C1 (centres unmarked)
target_under_test: Recombinant human cathepsin S (CatS) (Homo sapiens)
IC50 [nM]: 780

compound: CS(=O)(=O)N1CCc2c(c(-c3ccc(C(F)(F)F)c(CNC(=O)c4ccc(F)cc4)c3)nn2CC(O)CN2CCOCC2)C1 (centres unmarked)
target_under_test: Recombinant human cathepsin S (CatS) (Homo sapiens)
IC50 [nM]: 150

compound: CC(C)CC(=O)NCc1cc(-c2nn(CC(O)CN3CCC(NC(=O)OC(C)(C)C)CC3)c3c2CN(S(C)(=O)=O)CC3)ccc1C(F)(F)F (centres unmarked)
target_under_test: Recombinant human cathepsin S (CatS) (Homo sapiens)
IC50 [nM]: 50

compound: CS(=O)(=O)N1CCc2c(c(-c3ccc(Cl)c(CNC(=O)c4ccc(F)cc4)c3)nn2CC(O)CN2CCC(C(N)=O)CC2)C1 (centres unmarked)
target_under_test: Recombinant human cathepsin S (CatS) (Homo sapiens)
IC50 [nM]: 70
